Value source: patent US11202757B2

assay_comment: Particle size analysis (Malvern laser diffraction)
Assay type: physicochemical
condition_parameters: laser diffraction, active agent population of the composition
Counter-ions that a name gives are not always drawn.
endpoint: size range of the active agent particle population

INSERT INTO assay_data (molecule, recorded_result) VALUES
  ('COc1ccc2c3c1O[C@H]1C(=O)CC[C@@]4(O)[C@@H](C2)N(C)CC[C@]314.Cl [oxycodone hydrochloride]', '3-30 μm'),
  ('C=CCN1CC[C@]23c4c5ccc(O)c4O[C@H]2C(=O)CC[C@@]3(O)[C@H]1C5 [naloxone hydrochloride]', '5-30 μm'),
  ('CNS(=O)(=O)Cc1ccc2[nH]cc(CCN(C)C)c2c1 [sumatriptan succinate]', '5-25 μm');

We now examine a further molecule.
Read off the recorded size range of the active agent particle population for "CC(=O)Nc1ccc(O)cc1"
2-30 μm
